system: CCRIS mutagenicity, Ames/micronucleus/aberration tests; experiment: CCRIS mutagenicity studies; conditions: Test System: AMES SALMONELLA TYPHIMURIUM; Strain/Indicator: TA1537; Metabolic Activation: RAT, LIVER, S-9, AROCLOR 1254 (30%); Method: PREINCUBATION
Active and inactive are the calls of the source. No rule for the calls is given here.
Endpoint Name: mutagenic call

Example entries and their recorded answers appear below.
- Compound: "CCCCCCC(=O)O"
  mutagenic call: "inactive; negative"
- Compound: "COC[CH2][Hg][Cl]"
  mutagenic call: "inactive; negative"
- Compound: "CC(C)(C)c1ccc(OCC2CO2)cc1 (stereo not drawn)"
  mutagenic call: "inactive; negative"
- Compound: "CCCSC(=O)Cl"
  mutagenic call: "inactive; negative"
- Compound: "CC1OC1C (stereo not drawn)"
  mutagenic call: "inactive; negative"

mutagenic call for COC(=O)c1ccccc1O is inactive; negative

mutagenic call for CCCCOC(C)=O is inactive; negative

mutagenic call for CCCCCCCCCCCCCCCCC1CO1 (stereo not drawn) is inactive; negative

mutagenic call for Oc1ccc(Cl)c(Cl)c1Cl is inactive; negative

mutagenic call for COC(=O)[C@H]1[C@H]2C[C@@H]3c4[nH]c5cc(OC)ccc5c4CCN3C[C@H]2C[C@@H](OC(=O)/C=C/c2cc(OC)c(OC)c(OC)c2)[C@@H]1OC is inactive; negative

mutagenic call for CCCCCCCCCCCCCCCCCC[N+](C)(C)Cc1ccccc1 is inactive; negative

mutagenic call for CCCCCCCCCCCCCCCCCCCC is inactive; negative

mutagenic call for CC(C)CCCCCOC(=O)C[S][Sn]([CH3])([S]CC(=O)OCCCCCC(C)C)[S]CC(=O)OCCCCCC(C)C is inactive; negative
